PROTOCOL NOTES: CCTE_Shafer_MEA_dev_per_burst_interspike_interval: CCTE's Neural Network Formation Assay for Burst Interspike Interval, Shafer Lab (AID 2284044);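 also: mean spike spacing inside bursts as AUC over recordings on days 5 7 9 12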;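 as to AC50: potency for a decrease of within-burst interspike interval below DMSO level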
The source made the active and inactive calls. The calls were made as follows: active = hit-call score of the fitted dose curve at least 0.9, where 1 is the maximum; inactive = score below 0.9.
MEASURED QUANTITY: AC50

{"MOLECULE": "N[C@H]1C(O)O[C@H](CO)[C@H](O)[C@@H]1O (stereo partly specified)", "AC50": "2.98 µM (active)"}
{"MOLECULE": "c1ccc2c(c1)ccc1cc3c(ccc4ccccc43)cc12", "AC50": "inactive"}
{"MOLECULE": "CC=CC(F)(F)C(F)(F)C(F)(F)F", "AC50": "inactive"}
{"MOLECULE": "FC(F)=C(F)OC(F)(F)C(F)(F)C(F)(F)F", "AC50": "inactive"}
{"MOLECULE": "CC1(C)S[C@@H]2[C@H](NC(=O)COc3ccccc3)C(=O)N2[C@H]1C(=O)O", "AC50": "inactive"}

// next entry
Using the record for `CCOC(F)(F)C(F)(F)C(F)(F)C(F)(F)F` , state its measured AC50.
inactive
